# tested-system: UniProtKB Q6DWJ6
# Sequence (Q6DWJ6 whole entry): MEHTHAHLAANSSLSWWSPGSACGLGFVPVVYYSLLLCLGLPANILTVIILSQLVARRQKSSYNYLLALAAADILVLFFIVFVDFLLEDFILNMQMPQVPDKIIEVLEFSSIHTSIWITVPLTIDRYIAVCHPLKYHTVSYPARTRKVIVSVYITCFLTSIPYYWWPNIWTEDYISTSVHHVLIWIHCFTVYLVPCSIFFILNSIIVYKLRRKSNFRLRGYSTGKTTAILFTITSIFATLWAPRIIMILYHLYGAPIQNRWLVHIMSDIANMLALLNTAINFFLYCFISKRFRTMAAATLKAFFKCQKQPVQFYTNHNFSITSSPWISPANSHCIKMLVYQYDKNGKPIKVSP
quantity-name: GPR139 Antagonist Activity Lipophilic Efficiency (logP)

Some entries whose results are on file:
Cc1ccc(-n2cc(-c3ccccc3)nc2SCC(=O)Nc2ccccc2)cc1 | −1.3E+0
Cc1ccc(-n2cc(-c3ccccc3)nc2SCC(=O)Nc2ccc(F)cc2)cc1 | −954.4E−3
O=C(CSc1nc(-c2ccccc2)cn1-c1ccccc1)Nc1ccc(F)cc1 | −672.4E−3
CCc1ccccc1NC(=O)CSc1nnc(-c2ccccc2)c(-c2ccccc2)n1 | −850.1E−3
O=C(NCCCN1CCCC1=O)c1ccc(NCc2ccc(F)cc2)c(S(=O)(=O)Nc2cccc(C(F)(F)F)c2)c1 | 1.85
CC(C)C(=O)N1CCN(c2nc(-c3ccccc3)c3c(c2C#N)CCCC3)CC1 | −52.4E−3

a: Cc1ccc(-c2cn(-c3ccccc3)c(SCC(=O)Nc3ccccc3C)n2)cc1
b: O=C(Nc1ccccc1C(=O)O)c1ccc(Oc2ccc([N+](=O)[O-])cc2)cc1
Task: # compare GPR139 Antagonist Activity Lipophilic Efficiency (logP) for a vs b ; return the one with the smaller value Bench note: the answer is the label of the chosen record.
Result: a
